- Test system: 292921-168-R-J2-PDC complex spheroid viability
- protocolDetails: Anticancer human tumor 292921-168-R-J2-PDC patient-derived pancreatic carcinoma cell line growth inhibition
- measurementConditions: second compound 1 µM; first compound 0.0949 µM; stronger effect = lower value
reportedMetric: viability, T/C

// known answers, use as guide
{"columns": ["compound", "viability, T/C"],
 "data": [
  ["Nc1ncn(C2CC(O)C(CO)S2)c(=O)n1 (centres undefined) + NC1CC1c1ccc(-c2cccc(O)c2)cc1", "38.5%"],
  ["CCc1c2c(nc3ccc(O)cc13)-c1cc3c(c(=O)n1C2)COC(=O)[C@]3(O)CC + NC1CC1c1ccc(-c2cccc(O)c2)cc1", "1.21%"],
  ["CCN(c1cc(-c2ccc(CN3CCOCC3)cc2)cc(C(=O)NCc2c(C)cc(C)[nH]c2=O)c1C)C1CCOCC1 + NC1CCC(NC2CC2c2ccccc2)CC1", "67.6%"],
  ["Nc1ccccc1NC(=O)c1ccc(CNC(=O)OCc2cccnc2)cc1 + NC1CC1c1ccc(-c2cccc(O)c2)cc1", "33.7%"],
  ["Nc1ccn(C2OC(CO)C(O)C2(F)F)c(=O)n1 (centres undefined) + NC1CC1c1ccc(-c2cccc(O)c2)cc1", "5.98%"]
]}

Please state recorded viability, T/C (tested on 292921-168-R-J2-PDC complex spheroid viability) of COc1cc(C2c3cc4c(cc3C(OC3OC5COC(C)OC5C(O)C3O)C3COC(=O)C23)OCO4)cc(OC)c1O (centres undefined) + NC1CCC(NC2CC2c2ccccc2)CC1
30.5%

Please state recorded viability, T/C (tested on 292921-168-R-J2-PDC complex spheroid viability) of COc1cc(C2c3cc4c(cc3C(OC3OC5COC(C)OC5C(O)C3O)C3COC(=O)C23)OCO4)cc(OC)c1O (centres undefined) + NC1CC1c1ccc(-c2cccc(O)c2)cc1
27.4%

Please state recorded viability, T/C (tested on 292921-168-R-J2-PDC complex spheroid viability) of Nc1ccn(C2OC(CO)C(O)C2(F)F)c(=O)n1 (centres undefined) + NC1CCC(NC2CC2c2ccccc2)CC1
8.71%

Please state recorded viability, T/C (tested on 292921-168-R-J2-PDC complex spheroid viability) of O=C(C=Cc1cccc(S(=O)(=O)Nc2ccccc2)c1)NO + NC1CC1c1ccc(-c2cccc(O)c2)cc1
40.3%

----------
viability, T/C values by entry
- Test system: 292921-168-R-J2-PDC complex spheroid viability
- protocolDetails: Anticancer human tumor 292921-168-R-J2-PDC cell line growth inhibition
- measurementConditions: second compound 10 µM; first compound 0.949 µM; stronger effect = lower value

// known answers, use as guide
{"columns": ["compound", "viability, T/C"],
 "data": [
  ["CCN(c1cc(-c2ccc(CN3CCOCC3)cc2)cc(C(=O)NCc2c(C)cc(C)[nH]c2=O)c1C)C1CCOCC1 + NC1CCC(NC2CC2c2ccccc2)CC1", "37.4%"],
  ["COc1cc(C2c3cc4c(cc3C(OC3OC5COC(C)OC5C(O)C3O)C3COC(=O)C23)OCO4)cc(OC)c1O (centres undefined) + NC1CCC(NC2CC2c2ccccc2)CC1", "9.55%"],
  ["Nc1ccccc1NC(=O)c1ccc(CNC(=O)OCc2cccnc2)cc1 + NC1CCC(NC2CC2c2ccccc2)CC1", "0.79%"]
]}

Next, consider the following compound.
Please state recorded viability, T/C (tested on 292921-168-R-J2-PDC complex spheroid viability) of O=C(C=Cc1cccc(S(=O)(=O)Nc2ccccc2)c1)NO + NC1CC1c1ccc(-c2cccc(O)c2)cc1
0.41%

----------
- System: 292921-168-R-J2-PDC complex spheroid viability
- protocolDetails: Anticancer human tumor 292921-168-R-J2-PDC cell line growth inhibition;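 further: seven day compound exposure before luminescent viability read; 100% = DMSO vehicle control wells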
- measurementConditions: second compound 10 µM; first compound 0.001 µM; stronger effect = lower value
- Source text: Multicellular complex tumor spheroid response to LSD1 Inhibitor Iadademstat in combination with a variety of drugs and investigational agents in selected tumor cell lines The current study was undertaken to assess response to LSD1 inhibitors in combination with standard-of-care drugs and investigational agents in solid tumor complex spheroid models as well as in the K-562 leukemia. […] Compounds. […] If the clinical Cmax for an agent had not been determined, the highest concentration tested was 10 microM. […]
viability, T/C values by entry
Answer format: numeric, % implied, no suffix.

// known answers, use as guide
{"columns": ["compound", "numericValue"],
 "data": [
  ["CC(C)CC(NC(=O)CNC(=O)c1cc(Cl)ccc1Cl)B1OC(=O)CC(CC(=O)O)(C(=O)O)O1 (stereo not given) + NC1CCC(NC2CC2c2ccccc2)CC1", 69],
  ["Cn1ncnc1C1c2n[nH]c(=O)c3cc(F)cc(c23)NC1c1ccc(F)cc1 (stereo not given) + NC1CC1c1ccc(-c2cccc(O)c2)cc1", 58],
  ["CC(C)CC(NC(=O)CNC(=O)c1cc(Cl)ccc1Cl)B1OC(=O)CC(CC(=O)O)(C(=O)O)O1 (stereo not given) + NC1CC1c1ccc(-c2cccc(O)c2)cc1", 67.1],
  ["CC(C)CC(NC(=O)C(Cc1ccccc1)NC(=O)c1cnccn1)B(O)O (stereo not given) + NC1CCC(NC2CC2c2ccccc2)CC1", 0.55]
]}

Next, consider the following compound.
Which viability, T/C value belongs to Cn1ncnc1C1c2n[nH]c(=O)c3cc(F)cc(c23)NC1c1ccc(F)cc1 (stereo not given) + NC1CCC(NC2CC2c2ccccc2)CC1 ?
60.4

----------
viability, T/C values by entry
- Tested on: 292921-168-R-J2-PDC complex spheroid viability
- protocolDetails: Anticancer human tumor 292921-168-R-J2-PDC cell line growth inhibition;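 further: seven day compound exposure before luminescent viability read; 100% = DMSO vehicle control wells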
- measurementConditions: second compound 3.16 µM; first compound 0.1 µM; stronger effect = lower value
Answer format: numeric, % implied, no suffix.

// known answers, use as guide
{"columns": ["compound", "reportedMetric", "unitTag", "numericValue"],
 "data": [
  ["COc1cc(Nc2ncc3c(n2)-c2ccc(Cl)cc2C(c2c(F)cccc2OC)=NC3)ccc1C(=O)O + NC1CC1c1ccc(-c2cccc(O)c2)cc1", "viability, T/C", "%", 28.1],
  ["CC[C@@]1(O)C(=O)OCc2c1cc1n(c2=O)Cc2cc3c(CN(C)C)c(O)ccc3nc2-1 + NC1CCC(NC2CC2c2ccccc2)CC1", "viability, T/C", "%", 3.74]
]}

Which viability, T/C value belongs to Nc1ncn(C2CC(O)C(CO)O2)c(=O)n1 (stereo not drawn) + NC1CC1c1ccc(-c2cccc(O)c2)cc1 ?
54

----------
- Tested on: 292921-168-R-J2-PDC complex spheroid viability
- protocolDetails: Anticancer human tumor 292921-168-R-J2-PDC cell line growth inhibition; active means viability on the fitted dose curve at most 10% of control; inactive means the rest;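 further: seven day compound exposure before luminescent viability read; 100% = DMSO vehicle control wells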
- measurementConditions: second compound 10 µM; first compound 3 µM
Pick one and only one: t for active, f for inactive

{"columns": ["compound", "classification"],
 "data": [
  ["CCN(c1cc(-c2ccc(CN3CCOCC3)cc2)cc(C(=O)NCc2c(C)cc(C)[nH]c2=O)c1C)C1CCOCC1 + NC1CCC(NC2CC2c2ccccc2)CC1", "f"]
]}

Entry NS(=O)(=O)OCC1CC(n2ccc3c(NC4CCc5ccccc54)ncnc32)CC1O (stereo not drawn) + NC1CCC(NC2CC2c2ccccc2)CC1 : call = ?
t

Entry O=C(C=Cc1cccc(S(=O)(=O)Nc2ccccc2)c1)NO + NC1CC1c1ccc(-c2cccc(O)c2)cc1 : call = ?
t

----------
- Test system: 292921-168-R-J2-PDC complex spheroid viability
- protocolDetails: Anticancer human tumor 292921-168-R-J2-PDC cell line growth inhibition;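 further: seven day compound exposure before luminescent viability read; 100% = DMSO vehicle control wells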
- measurementConditions: second compound 3.16 µM; first compound 0.3 µM; stronger effect = lower value
- From the text: Multicellular complex tumor spheroid response to LSD1 Inhibitor Iadademstat in combination with a variety of drugs and investigational agents in selected tumor cell lines The current study was undertaken to assess response to LSD1 inhibitors in combination with standard-of-care drugs and investigational agents in solid tumor complex spheroid models as well as in the K-562 leukemia. […] Compounds. […] If the clinical Cmax for an agent had not been determined, the highest concentration tested was 10 microM. […]
reportedMetric: viability, T/C (%)
Answer format: numeric, % implied, no suffix.

// known answers, use as guide
{"columns": ["compound", "viability, T/C, %"],
 "data": [
  ["COc1cc(C2c3cc4c(cc3C(OC3OC5COC(C)OC5C(O)C3O)C3COC(=O)C23)OCO4)cc(OC)c1O (configuration not stated) + NC1CC1c1ccc(-c2cccc(O)c2)cc1", 15.2],
  ["COc1cc(C2c3cc4c(cc3C(OC3OC5COC(C)OC5C(O)C3O)C3COC(=O)C23)OCO4)cc(OC)c1O (configuration not stated) + NC1CCC(NC2CC2c2ccccc2)CC1", 19],
  ["Nc1ncn(C2CC(O)C(CO)S2)c(=O)n1 (configuration not stated) + NC1CC1c1ccc(-c2cccc(O)c2)cc1", 12.8]
]}

Please state recorded viability, T/C (tested on 292921-168-R-J2-PDC complex spheroid viability) of NS(=O)(=O)OCC1CC(n2ccc3c(NC4CCc5ccccc54)ncnc32)CC1O (configuration not stated) + NC1CC1c1ccc(-c2cccc(O)c2)cc1
2.49

Please state recorded viability, T/C (tested on 292921-168-R-J2-PDC complex spheroid viability) of Nc1ccccc1NC(=O)c1ccc(CNC(=O)OCc2cccnc2)cc1 + NC1CCC(NC2CC2c2ccccc2)CC1
16.3

Please state recorded viability, T/C (tested on 292921-168-R-J2-PDC complex spheroid viability) of CCc1c2c(nc3ccc(O)cc13)-c1cc3c(c(=O)n1C2)COC(=O)[C@]3(O)CC + NC1CC1c1ccc(-c2cccc(O)c2)cc1
1.13

Please state recorded viability, T/C (tested on 292921-168-R-J2-PDC complex spheroid viability) of CCN(c1cc(-c2ccc(CN3CCOCC3)cc2)cc(C(=O)NCc2c(C)cc(C)[nH]c2=O)c1C)C1CCOCC1 + NC1CCC(NC2CC2c2ccccc2)CC1
57.6
